In this section we review reported protein stability index values for a set of variants.
B1: C20orf112 (parent)
chain: YANGGLNYSYRGYGALSSNLQPPA

- Variants of: B1
- method: protein stability index of a GFP-peptide fusion (GPS, HEK-293T) (PSI 1-6); higher = more stable;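 further: lentivirally expressed fusions sorted by FACS into six bins by GFP to DsRed ratio, PSI derived from sequencing read proportions per bin multiplied by bin number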
- experimental_context: c terminus: a fixed tail appended
Would you mind answering with just the numeric figure?

Query: I would be grateful if you could share the reported protein stability index for `YANGGHNYSYRGYGALSSNLQPPA` .
Result: 1.97

Query: I would be grateful if you could share the reported protein stability index for `YANGGLNYSYRGYGALSSVLQPPA` .
Result: 1.99

Query: I would be grateful if you could share the reported protein stability index for `YANTGLNYSYRGYGALSSNLQPPA` .
Result: 1.98
